Listed molecules paired with reported IC50
Target: human Gal-1 (hGal-1) (Homo sapiens (Human))
Sequence (P09382 whole entry): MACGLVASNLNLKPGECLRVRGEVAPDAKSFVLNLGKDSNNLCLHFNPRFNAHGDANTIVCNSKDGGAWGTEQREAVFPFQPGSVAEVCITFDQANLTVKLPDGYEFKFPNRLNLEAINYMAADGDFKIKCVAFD

molecule	subject-of-test	output-unit	IC50
CCCc1onc(C(S[C@@H]2O[C@H](CO)[C@H](O)[C@H](n3cc(-c4cc(F)c(F)c(F)c4)nn3)[C@H]2OC)C2(O)CCC(F)(F)CC2)c1CC (stereo partly drawn)	human Gal-1 (hGal-1) (Homo sapiens (Human))	nM	170
Cc1nc(C(S[C@@H]2O[C@H](CO)[C@H](O)[C@H](n3cc(-c4cc(F)c(F)c(F)c4)nn3)[C@H]2O)C(C)(C)O)c(C)s1 (stereo partly drawn)	human Gal-1 (hGal-1) (Homo sapiens (Human))	nM	1740
Cc1nccnc1[C@@H](S[C@@H]1O[C@H](CO)[C@H](O)[C@H](n2cc(-c3cc(F)c(F)c(F)c3)nn2)[C@H]1O)C1(O)CCC(F)(F)CC1 [Example 2.44.129R.]	human Gal-1 (hGal-1) (Homo sapiens (Human))	nM	200
CO[C@@H]1[C@@H](n2cc(-c3ccc(F)c(F)c3)nn2)[C@@H](O)[C@@H](CO)O[C@H]1S[C@@H](c1ncccc1C)C1(O)CCC(F)(F)CC1 [Example 16.44.126S.I.]	human Gal-1 (hGal-1) (Homo sapiens (Human))	nM	54200
CC(C)(O)[C@H](S[C@@H]1O[C@H](CO)[C@H](O)[C@H](n2cc(-c3cc(F)c(F)c(F)c3)nn2)[C@H]1O)c1cccc2ccccc12 [Example 2.31.115R.]	human Gal-1 (hGal-1) (Homo sapiens (Human))	nM	580
CC(C)(O)[C@H](S[C@@H]1O[C@H](CO)[C@H](O)[C@H](n2cc(-c3cc(F)c(F)c(F)c3)nn2)[C@H]1O)c1ccccc1C(F)(F)F [Example 2.31.112R.]	human Gal-1 (hGal-1) (Homo sapiens (Human))	nM	2610
COC(=O)N1CCC(O)([C@H](S[C@@H]2O[C@H](CO)[C@H](O)[C@H](n3cc(-c4cc(F)c(F)c(F)c4)nn3)[C@H]2O)c2ccccc2C(F)(F)F)CC1 [Example 2.50.112R.]	human Gal-1 (hGal-1) (Homo sapiens (Human))	nM	370
OC[C@H]1O[C@@H](S[C@@H](c2ncccc2C(F)(F)F)C2(O)CCC(F)(F)CC2)[C@H](O)[C@@H](n2cc(-c3cc(F)c(F)c(F)c3)nn2)[C@H]1O [Example 2.44.125S.]	human Gal-1 (hGal-1) (Homo sapiens (Human))	nM	3410
CC(C)(O)[C@@H](S[C@@H]1O[C@H](CO)[C@H](O)[C@H](n2cc(-c3cc(F)c(F)c(F)c3)nn2)[C@H]1O)c1ccccc1C(F)(F)F [Example 2.31.112S.]	human Gal-1 (hGal-1) (Homo sapiens (Human))	nM	26400
Cc1c(F)cc(-c2cn([C@H]3[C@@H](O)[C@@H](CO)O[C@@H](S[C@H](c4ccccc4C(F)(F)F)C(C)(C)O)[C@@H]3O)nn2)cc1F [Example 3.31.112R.]	human Gal-1 (hGal-1) (Homo sapiens (Human))	nM	2840
Cc1ccnnc1[C@@H](S[C@@H]1O[C@H](CO)[C@H](O)[C@H](n2cc(-c3cc(F)c(F)c(F)c3)nn2)[C@H]1O)C1(O)CCC(F)(F)CC1 [Example 2.44.135R.]	human Gal-1 (hGal-1) (Homo sapiens (Human))	nM	220
CO[C@@H]1[C@@H](n2cc(-c3cc(F)c(F)c(F)c3)nn2)[C@@H](O)[C@@H](CO)O[C@H]1SC(c1c(C)cnn1C)C1(O)CCC(F)(F)CC1 (stereo partly drawn)	human Gal-1 (hGal-1) (Homo sapiens (Human))	nM	2530

The reported numbers originate from patent US12404295B2.
